# Test Protocol: Pharmacokinetic data in mice for Example F1 and rolipram
# Type: in vivo
# Condition Label: mouse, plasma; mice, F1 30 mg/kg IP alone; read-out: Cmax, F1
Endpoint Name: Cmax (nM)

Compound	Endpoint Name	Experimental Value
CCOC(=O)c1sc(Nc2nc(NCc3cc(OC)c(OC)c(OC)c3)cc(N3CCC(N(C)C)CC3)n2)nc1C	Cmax	2200

----------
# Subject Of Test: PDE3 (Homo sapiens, UniProt Q14432)
# Sequence (Q14432 whole entry): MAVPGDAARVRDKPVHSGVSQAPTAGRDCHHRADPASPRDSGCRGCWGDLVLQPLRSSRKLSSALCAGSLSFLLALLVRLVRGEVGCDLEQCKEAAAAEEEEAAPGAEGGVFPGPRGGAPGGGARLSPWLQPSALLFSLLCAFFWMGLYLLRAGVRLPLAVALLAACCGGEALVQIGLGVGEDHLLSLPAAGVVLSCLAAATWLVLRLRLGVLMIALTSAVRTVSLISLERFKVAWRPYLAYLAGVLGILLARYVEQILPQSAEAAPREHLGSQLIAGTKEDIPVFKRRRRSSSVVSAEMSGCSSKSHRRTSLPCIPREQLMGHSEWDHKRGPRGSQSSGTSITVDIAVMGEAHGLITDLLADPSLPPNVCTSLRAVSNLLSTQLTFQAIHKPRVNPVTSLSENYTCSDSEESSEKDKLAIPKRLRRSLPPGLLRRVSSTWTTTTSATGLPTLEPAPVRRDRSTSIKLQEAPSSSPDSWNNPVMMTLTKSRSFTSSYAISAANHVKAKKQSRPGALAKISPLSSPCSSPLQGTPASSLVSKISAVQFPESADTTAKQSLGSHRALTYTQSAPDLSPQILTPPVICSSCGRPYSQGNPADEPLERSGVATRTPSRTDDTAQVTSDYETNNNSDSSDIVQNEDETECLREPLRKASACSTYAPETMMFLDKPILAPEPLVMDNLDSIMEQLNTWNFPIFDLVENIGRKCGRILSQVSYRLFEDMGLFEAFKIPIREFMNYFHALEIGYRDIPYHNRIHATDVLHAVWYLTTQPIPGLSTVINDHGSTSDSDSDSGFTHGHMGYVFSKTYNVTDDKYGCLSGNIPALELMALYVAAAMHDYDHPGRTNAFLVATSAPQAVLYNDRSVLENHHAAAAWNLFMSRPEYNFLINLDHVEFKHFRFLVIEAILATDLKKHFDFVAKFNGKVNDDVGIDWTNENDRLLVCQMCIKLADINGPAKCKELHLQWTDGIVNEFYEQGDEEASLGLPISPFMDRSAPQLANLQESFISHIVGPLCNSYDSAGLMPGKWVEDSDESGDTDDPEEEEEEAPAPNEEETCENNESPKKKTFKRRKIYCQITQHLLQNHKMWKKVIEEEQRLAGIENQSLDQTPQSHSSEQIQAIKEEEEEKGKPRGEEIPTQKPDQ
Endpoint Name: IC50 (µM)

Compound	Subject Of Test	Prefix Operator	Experimental Value
CCOC(=O)c1sc(Nc2nc(N3CCC(O)CC3)cc(N3CCC(O)CC3)n2)nc1C	PDE3 (Homo sapiens, UniProt Q14432)	=	20
COc1ccc([C@]2(C#N)CC[C@@H](C(=O)O)CC2)cc1OC1CCCC1 [cilomilast, reference compound]	PDE3 (Homo sapiens, UniProt Q14432)	>	10
